// PC1 (Mus musculus, UniProt P63239) Ki records

>  <given.smiles>
N=C(N)NCCC[C@H](NC(=O)[C@H](CCCNC(=N)N)NC(=O)[C@H](CCCNC(=N)N)NC(=O)[C@H](CCCNC(=N)N)NC(=O)[C@H](CCCNC(=N)N)NC(=O)[C@H](CCCNC(=N)N)NC(=O)[C@H](CCCNC(=N)N)NC(=O)[C@@H](N)CCCNC(=N)N)C(=O)O

>  <Ki (µM)>
5.1

$$$$
>  <given.smiles>
N=C(N)NCCC[C@H](NC(=O)[C@H](CCCNC(=N)N)NC(=O)[C@H](CCCNC(=N)N)NC(=O)[C@H](CCCNC(=N)N)NC(=O)[C@H](CCCNC(=N)N)NC(=O)[C@@H](N)CCCNC(=N)N)C(=O)O

>  <Ki (µM)>
3.9

$$$$

* * *

system.under.test: recombinant mouse furin (Mus musculus)
Construct: truncated N-terminally to the transmembrane domain at His^711 using PCR; myc (C, cleaved yes); hexa-His (C, cleaved yes)
Sequence (P23188 108-714 limits assumed): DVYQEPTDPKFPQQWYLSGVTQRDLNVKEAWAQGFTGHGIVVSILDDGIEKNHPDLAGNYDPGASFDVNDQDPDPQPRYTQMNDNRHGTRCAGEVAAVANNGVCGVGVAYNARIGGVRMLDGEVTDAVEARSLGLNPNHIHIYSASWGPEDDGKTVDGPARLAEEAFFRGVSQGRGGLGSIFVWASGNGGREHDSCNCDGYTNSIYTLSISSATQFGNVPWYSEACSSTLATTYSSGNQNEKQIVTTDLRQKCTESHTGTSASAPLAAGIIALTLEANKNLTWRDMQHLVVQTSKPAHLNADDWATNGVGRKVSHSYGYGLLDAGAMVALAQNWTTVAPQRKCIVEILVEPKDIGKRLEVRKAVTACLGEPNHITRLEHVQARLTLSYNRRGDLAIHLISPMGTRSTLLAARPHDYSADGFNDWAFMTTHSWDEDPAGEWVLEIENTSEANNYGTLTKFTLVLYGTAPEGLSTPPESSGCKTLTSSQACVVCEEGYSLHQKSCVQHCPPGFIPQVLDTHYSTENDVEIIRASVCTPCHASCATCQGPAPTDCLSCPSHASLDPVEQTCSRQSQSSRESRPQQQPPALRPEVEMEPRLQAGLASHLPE
assay.method.text: Furin enzyme assay, hydrolysis of pERTKR-MCA at pH 7.0
Non-standard residues stand in square brackets, D forms with d. Residues, ends and D or L forms follow the SMILES beside them.
Listing of entries alongside the reported Ki.

>  <compound>
CC(=O)N[C@H](Cc1c[nH]c2ccccc12)C(=O)N[C@H](CCCNC(=N)N)C(=O)N[C@H](CCCNC(=N)N)C(=O)N[C@H](CCCNC(=N)N)C(=O)N[C@H](CCCNC(=N)N)C(=O)N[C@H](CCCNC(=N)N)C(N)=O [Ac-wrrrrr-NH2] (Ac-[dW][dR][dR][dR][dR][dR]-NH2)

>  <system.under.test>
recombinant mouse furin (Mus musculus)

>  <unit.string>
µM

>  <Ki>
2.4

$$$$
>  <compound>
CC(=O)N[C@@H](CC(C)C)C(=O)N[C@@H](CC(C)C)C(=O)N[C@@H](CCCNC(=N)N)C(=O)N[C@H](C(=O)N[C@@H](CCCCN)C(=O)N[C@@H](CCCNC(=N)N)C(N)=O)C(C)C

>  <system.under.test>
recombinant mouse furin (Mus musculus)

>  <unit.string>
µM

>  <Ki>
3.4

$$$$
>  <compound>
CC(=O)N[C@H](Cc1c[nH]c2ccccc12)C(=O)N[C@H](CCCNC(=N)N)C(=O)N[C@H](CCCNC(=N)N)C(=O)N[C@H](CCCNC(=N)N)C(=O)N[C@H](CCCNC(=N)N)C(=O)N[C@H](CC(C)C)C(N)=O [Ac-wrrrrl-NH2] (Ac-[dW][dR][dR][dR][dR][dL]-NH2)

>  <system.under.test>
recombinant mouse furin (Mus musculus)

>  <unit.string>
µM

>  <Ki>
5.3

$$$$
>  <compound>
CC[C@@H](C)[C@@H](NC(=O)[C@@H](CCCNC(=N)N)NC(=O)[C@@H](CCCNC(=N)N)NC(=O)[C@@H](CCCNC(=N)N)NC(=O)[C@@H](Cc1c[nH]c2ccccc12)NC(C)=O)C(=O)N[C@H](CC(C)C)C(N)=O [Ac-wrrril-NH2] (Ac-[dW][dR][dR][dR][dI][dL]-NH2)

>  <system.under.test>
recombinant mouse furin (Mus musculus)

>  <unit.string>
µM

>  <Ki>
22.7

$$$$
>  <compound>
N=C(N)NCCC[C@H](NC(=O)[C@H](CCCNC(=N)N)NC(=O)[C@H](CCCNC(=N)N)NC(=O)[C@H](CCCNC(=N)N)NC(=O)[C@H](CCCNC(=N)N)NC(=O)[C@H](CCCNC(=N)N)NC(=O)[C@H](CCCNC(=N)N)NC(=O)[C@H](CCCNC(=N)N)NC(=O)[C@@H](N)CCCNC(=N)N)C(=O)O

>  <system.under.test>
recombinant mouse furin (Mus musculus)

>  <unit.string>
µM

>  <Ki>
0.042

$$$$
